target: α1A-adrenoceptor (Rattus norvegicus)
Construct: from tissue; host or cells: rat submaxillary gland membranes
Sequence (P43140 1-466): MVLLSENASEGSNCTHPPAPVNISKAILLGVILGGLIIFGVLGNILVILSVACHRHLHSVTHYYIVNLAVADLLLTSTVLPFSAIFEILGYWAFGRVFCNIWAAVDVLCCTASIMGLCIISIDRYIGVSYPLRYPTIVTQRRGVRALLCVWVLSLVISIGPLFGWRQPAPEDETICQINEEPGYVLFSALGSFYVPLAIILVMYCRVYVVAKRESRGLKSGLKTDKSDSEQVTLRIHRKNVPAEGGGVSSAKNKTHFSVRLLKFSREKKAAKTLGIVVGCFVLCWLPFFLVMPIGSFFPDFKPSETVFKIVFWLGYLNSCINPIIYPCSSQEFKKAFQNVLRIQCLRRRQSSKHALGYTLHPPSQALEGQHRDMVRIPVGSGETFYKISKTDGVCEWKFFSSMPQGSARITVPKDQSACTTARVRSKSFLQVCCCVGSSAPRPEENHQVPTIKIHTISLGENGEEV
assayRemarks: Receptor binding assay, [3H]prazosin, rat submaxillary membranes
Provide the recorded Ki for the entries that follow.
Write the answer as a number in nM, unit excluded.

What reported Ki corresponds to O=C1CCCC(=O)N1CCCN1CCN(c2ccccc2F)CC1 [Compound 17] on α1A-adrenoceptor (Rattus norvegicus)? 21

What reported Ki corresponds to O=C1CCC(=O)N1CCCN1CCN(c2ccccc2)CC1 [Compound 8] on α1A-adrenoceptor (Rattus norvegicus)? 57

----------
target: α1B-adrenoceptor (Rattus norvegicus, UniProt P15823)
Construct: from tissue; host or cells: rat liver membranes
Sequence (P15823 whole entry): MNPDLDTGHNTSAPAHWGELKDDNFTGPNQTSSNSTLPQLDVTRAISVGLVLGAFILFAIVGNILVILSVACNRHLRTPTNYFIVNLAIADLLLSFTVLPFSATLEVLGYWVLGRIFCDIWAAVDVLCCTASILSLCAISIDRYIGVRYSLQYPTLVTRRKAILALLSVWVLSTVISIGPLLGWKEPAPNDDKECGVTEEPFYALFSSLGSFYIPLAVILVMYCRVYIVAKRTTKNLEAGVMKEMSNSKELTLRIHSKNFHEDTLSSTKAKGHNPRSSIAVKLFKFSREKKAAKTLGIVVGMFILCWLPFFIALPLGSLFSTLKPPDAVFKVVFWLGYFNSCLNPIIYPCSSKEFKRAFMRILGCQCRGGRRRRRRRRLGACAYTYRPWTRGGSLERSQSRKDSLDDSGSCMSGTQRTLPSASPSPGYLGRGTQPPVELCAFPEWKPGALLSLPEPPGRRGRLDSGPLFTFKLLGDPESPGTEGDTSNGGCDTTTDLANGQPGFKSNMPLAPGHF
assayRemarks: Receptor binding assay, [3H]prazosin, rat liver membranes
conditionNotes: rat liver membranes, 0.5 nM [3H]prazosin; read-out: RBA (Ki nM) α1B
Provide the recorded Ki for the entries that follow.
Write the answer as a number in nM, unit excluded.

GET /values?readout=Ki&item= O=C1CCC(=O)N1CCCN1CCC(c2ccccc2)CC1 [Compound 27] 2000

GET /values?readout=Ki&item= COc1ccccc1N1CCN(CCCN2C(=O)CCC2=O)CC1 [Compound 2] 244

GET /values?readout=Ki&item= O=C1CCCC(=O)N1CCCN1CCN(c2cccc(Cl)c2)CC1 [Compound 20] 113

GET /values?readout=Ki&item= Cc1ccccc1N1CCN(CCCN2C(=O)CCCC2=O)CC1 [Compound 18] 267

GET /values?readout=Ki&item= O=C1CCC(=O)N1CCCN1CCN(c2ccccn2)CC1 [Compound 4] 2100

----------
target: α1B-adrenoceptor (Rattus norvegicus, UniProt P15823)
Construct: from tissue; host or cells: rat liver membranes
assayRemarks: Receptor binding assay, [3H]prazosin, rat liver membranes
pKi: −log10 of the molar value.
property: pKi

GET /values?readout=pKi&item= COc1ccc(N2CCN(CCCN3C(=O)CCCC3=O)CC2)cc1 [Compound 24] < 5.60

----------
Provide the recorded melting point for the entries that follow.
Counter-ions that a name gives are not always drawn.

GET /values?readout=melting point&item= O=C1CCC(=O)N1CCCN1CCN(c2ccccn2)CC1 (as salt: hydrochloride) [Compound 4] 261 to 262 °C

GET /values?readout=melting point&item= O=C1CCC(=O)N1CCCN1CCN(c2cccc(C(F)(F)F)c2)CC1 (as salt: hydrochloride) [Compound 3] 218 to 220 °C

GET /values?readout=melting point&item= O=C1CCCC(=O)N1CCCN1CCN(c2ccccn2)CC1 (as salt: hydrochloride) [Compound 19] 244 to 245 °C

GET /values?readout=melting point&item= O=C1CCCC(=O)N1CCCN1CCN(c2cccc(Cl)c2)CC1 (as salt: hydrochloride) [Compound 20] 214 to 215 °C

GET /values?readout=melting point&item= COc1ccccc1N1CCN(CCN2C(=O)CCC2=O)CC1 (as salt: hydrochloride) [Compound 10] 232 to 234 °C

GET /values?readout=melting point&item= O=C1CCCC(=O)N1CCCN1CCN(c2cccc(C(F)(F)F)c2)CC1 (as salt: hydrochloride) [Compound 16] 228 to 229 °C

GET /values?readout=melting point&item= O=C1CCC(=O)N1CCCN1CCN(c2cccc(Cl)c2)CC1 (as salt: hydrochloride) [Compound 5] 230 to 231 °C
